Experiment: Progesterone serum levels after topical ProGest cream in menopausal or postmenopausal women
Assay type: in vivo, human
Conditions: female, human, topical, Week 1, 1 H, topical ProGest cream 2 ml, per patient
Quantity Measured: concentration at 1 h (ng/mL)
Give the number; ng/mL is assumed, so skip it.

What value of concentration at 1 h has been recorded for this entry: CC(=O)[C@H]1CC[C@H]2[C@@H]3CCC4=CC(=O)CC[C@]4(C)[C@H]3CC[C@]12C
1

---

Test: Progesterone serum levels after topical ProGest cream in menopausal or postmenopausal women
Assay type: in vivo, human
Details: female, human, topical, Week 1, 3 H, topical ProGest cream 2 ml, per patient
Quantity Measured: concentration (ng/mL)
Write the value in ng/mL as a bare number.

So what does the record say about concentration for CC(=O)[C@H]1CC[C@H]2[C@@H]3CCC4=CC(=O)CC[C@]4(C)[C@H]3CC[C@]12C [P, progesterone] ?
1
